- assaySystem: Protein cereblon/Bromodomain-containing protein 9 (Homo sapiens, UniProt Q9H8M2+Q96SW2)
- Sequence (Q96SW2 whole entry, looked up): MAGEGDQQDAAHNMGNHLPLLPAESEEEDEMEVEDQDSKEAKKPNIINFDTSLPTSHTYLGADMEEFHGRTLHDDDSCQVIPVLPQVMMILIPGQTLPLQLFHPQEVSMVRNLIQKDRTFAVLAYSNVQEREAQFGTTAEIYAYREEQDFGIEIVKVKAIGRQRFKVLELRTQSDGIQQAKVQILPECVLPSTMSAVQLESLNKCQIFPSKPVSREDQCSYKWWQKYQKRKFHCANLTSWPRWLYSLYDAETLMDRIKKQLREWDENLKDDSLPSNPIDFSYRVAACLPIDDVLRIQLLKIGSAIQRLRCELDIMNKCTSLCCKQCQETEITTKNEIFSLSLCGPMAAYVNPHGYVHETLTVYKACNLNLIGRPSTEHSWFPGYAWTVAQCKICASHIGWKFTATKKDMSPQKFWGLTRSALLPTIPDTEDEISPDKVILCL
- Sequence (Q9H8M2 whole entry, looked up): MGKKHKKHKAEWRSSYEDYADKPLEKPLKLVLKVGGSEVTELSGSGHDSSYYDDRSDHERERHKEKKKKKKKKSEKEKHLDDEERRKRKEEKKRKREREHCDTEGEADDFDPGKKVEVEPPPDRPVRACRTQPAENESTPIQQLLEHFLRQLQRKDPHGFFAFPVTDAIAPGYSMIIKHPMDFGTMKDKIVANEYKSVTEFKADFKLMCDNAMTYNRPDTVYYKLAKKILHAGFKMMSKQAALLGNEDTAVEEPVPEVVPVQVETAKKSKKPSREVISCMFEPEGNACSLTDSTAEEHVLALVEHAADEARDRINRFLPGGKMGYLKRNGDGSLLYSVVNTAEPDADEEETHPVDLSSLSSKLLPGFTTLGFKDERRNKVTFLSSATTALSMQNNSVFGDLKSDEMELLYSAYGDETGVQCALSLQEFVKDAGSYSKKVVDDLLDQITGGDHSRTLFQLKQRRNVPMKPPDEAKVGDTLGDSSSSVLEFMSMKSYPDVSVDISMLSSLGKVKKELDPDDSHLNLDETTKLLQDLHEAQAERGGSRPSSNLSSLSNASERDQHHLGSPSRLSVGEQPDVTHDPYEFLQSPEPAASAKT
- assayExplanation: PROTAC activity at CRBN/BRD9 in human MV4-11 cells assessed as induction of BRD9 degradation at 100 nM by Western blot analysis relative to control
- Type: cell-based
metricName: Activity (%)

COc1cc(-c2cn(C)c(=O)c3ccccc23)cc(OC)c1CN1CCN(c2ccc(C(=O)NC3CCC(=O)NC3=O)cc2)CC1 (centres undefined) ... 35.7
COc1cc(-c2cn(C)c(=O)c3ccccc23)cc(OC)c1CN1CCN(c2ccc(OC3CCC(=O)NC3=O)cc2)CC1 (centres undefined) ... 80.5

1: COc1cc(-c2cn(C)c(=O)c3ccccc23)cc(OC)c1CN1CCC(CN2CCN(c3ccc(C(=O)NC4CCC(=O)NC4=O)nc3)CC2)CC1 (centres undefined)
2: COc1cc(-c2cn(C)c(=O)c3ccccc23)cc(OC)c1CN1CCN(c2ccc(C(=O)NC3CCC(=O)NC3=O)cn2)CC1 (centres undefined)
Which value of Activity is greater, the one for 1 or the one for 2 ? Please reply using the label of the selected record.
1
